B1: Osa-1-4 twister ribozyme (parent)
chain: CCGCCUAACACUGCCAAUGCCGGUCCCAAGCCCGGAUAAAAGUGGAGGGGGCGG

Variants of: B1
Experiment: self-cleavage, relative activity (ratio to wild type); higher = more cleavage; co-transcriptional
Listed below: self-cleavage values for each entry.
Give a plain numeric answer without units written out.

Below: 3 variants and their reported self-cleavage.
>>> print(df.to_string())
   mutation_label  measured_number
0       A39U A40G             0.65
1        A39U A7G              0.2
2       A38U C20A             0.82

Q: Need self-cleavage of U18C U24A , thanks.
Ans: 0.21

Q: And for G19A G22U ?
Ans: 0.12

Q: Can you handle G13U G49U next?
Ans: 0.01

Q: Also, A16C A17C please.
Ans: 0.87

Q: Follow-up item: A17C U24A
Ans: 0.03

Q: Repeat for the following variant: A41U C26G
Ans: 0.11

Q: Could you do the same for A40C G44A , please?
Ans: 0.09

Q: Next variant up: C11G C31A
Ans: 0.03
